Hey, just so you know, these numbers are from ChEMBL document CHEMBL1909046.

assaySystem: Estrogen receptor beta (Homo sapiens, UniProt Q92731); note: in other assays of this panel Not Active means under 50% inhibition at 10 µM
Sequence (Q92731 whole entry): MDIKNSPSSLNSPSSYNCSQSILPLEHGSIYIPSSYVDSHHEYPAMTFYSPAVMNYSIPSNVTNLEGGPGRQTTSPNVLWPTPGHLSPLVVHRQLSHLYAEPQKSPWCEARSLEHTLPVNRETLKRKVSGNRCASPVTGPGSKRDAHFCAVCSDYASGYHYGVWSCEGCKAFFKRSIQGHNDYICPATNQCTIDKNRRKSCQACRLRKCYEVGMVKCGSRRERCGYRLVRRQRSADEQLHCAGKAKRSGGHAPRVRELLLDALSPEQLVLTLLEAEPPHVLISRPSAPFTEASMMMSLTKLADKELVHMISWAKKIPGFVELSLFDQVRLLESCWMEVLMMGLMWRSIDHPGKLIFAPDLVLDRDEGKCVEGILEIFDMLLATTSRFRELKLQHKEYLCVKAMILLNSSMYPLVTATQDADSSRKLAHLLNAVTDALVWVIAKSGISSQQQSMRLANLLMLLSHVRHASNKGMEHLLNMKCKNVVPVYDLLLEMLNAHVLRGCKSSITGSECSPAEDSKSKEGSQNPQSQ
conditionNotes: sf9
Where a SMILES comes first, the peptide text is derived from it. Bridges are numbered along the chain shown (N, C = ends). [ ]: non-standard residue; d: D form. The star is where a group is joined. Threoninol(2S,3R) = C[C@@H](O)[C@H](CO)N*
measurementType: IC50

Here's what some known entries look like.
CNC(=C[N+](=O)[O-])NCCSCc1ccc(CN(C)C)o1 [RANITIDINE] ... Not Active
COc1cccc2c1C(=O)c1c(O)c3c(c(O)c1C2=O)C[C@@](O)(C(=O)CO)C[C@@H]3O[C@H]1C[C@H](N)[C@@H](O)[C@H](C)O1 [EPIRUBICIN] ... Not Active
CCN1CC(CCN2CCOCC2)C(c2ccccc2)(c2ccccc2)C1=O (stereo unspecified) [DOXAPRAM] ... Not Active
CN(C)/N=N/c1[nH]cnc1C(N)=O [DACARBAZINE] ... Not Active
CC(=O)Nc1ccc(O)cc1 [ACETAMINOPHEN] ... Not Active

With Estrogen receptor beta (Homo sapiens, UniProt Q92731) as the test system, CN1C(C(=O)Nc2ccccn2)=C(O)c2sccc2S1(=O)=O [TENOXICAM] showed IC50 of Not Active

Entry N=C(Nc1ccccc1)Nc1ccccc1 , tested on Estrogen receptor beta (Homo sapiens, UniProt Q92731), has a reported IC50 of Not Active

Estrogen receptor beta (Homo sapiens, UniProt Q92731) IC50 of CC1(C)O[C@@H]2C[C@H]3[C@@H]4C[C@H](F)C5=CC(=O)C=C[C@]5(C)[C@H]4[C@@H](O)C[C@]3(C)[C@]2(C(=O)CO)O1 [FLUNISOLIDE] is Not Active

The recorded IC50 with Estrogen receptor beta (Homo sapiens, UniProt Q92731) for Oc1ccc(OCc2ccccc2)cc1 [MONOBENZONE] was Not Active

# IC50 measured on Estrogen receptor beta (Homo sapiens, UniProt Q92731) for item Nc1ccn([C@@H]2CS[C@H](CO)O2)c(=O)n1 [LAMIVUDINE] = Not Active

Measured on Estrogen receptor beta (Homo sapiens, UniProt Q92731), CCc1c2c(nc3ccc(OC(=O)N4CCC(N5CCCCC5)CC4)cc13)-c1cc3c(c(=O)n1C2)COC(=O)[C@]3(O)CC [IRINOTECAN] has a documented IC50 of Not Active

Here CC(C)(Oc1ccc(C2CCCc3ccccc32)cc1)C(=O)O (stereo unspecified) [NAFENOPIN] was tested on Estrogen receptor beta (Homo sapiens, UniProt Q92731), and its IC50 came to Not Active

The compound NC(=O)NO [HYDROXYUREA] , tested on Estrogen receptor beta (Homo sapiens, UniProt Q92731), showed IC50 of Not Active

The measured IC50 that C[C@@H](O)[C@H](CO)NC(=O)[C@@H]1CSSC[C@H](NC(=O)[C@H](N)Cc2ccccc2)C(=O)N[C@@H](Cc2ccccc2)C(=O)N[C@H](Cc2c[nH]c3ccccc23)C(=O)N[C@@H](CCCCN)C(=O)N[C@@H]([C@@H](C)O)C(=O)N1 (H-[dF]CF[dW]KTC-{Threoninol(2S,3R)}; disulfide 2-7) showed for Estrogen receptor beta (Homo sapiens, UniProt Q92731) is Not Active

Log: Estrogen receptor beta (Homo sapiens, UniProt Q92731), compound C#C[C@]1(OC(C)=O)CC[C@H]2[C@@H]3CCC4=CC(=O)CC[C@@H]4[C@H]3CC[C@@]21C [NORETHINDRONE ACETATE] , IC50 = Not Active

# lookup: Cc1ccccc1C(=O)N1CCC(Cc2ccccc2)CC1 on Estrogen receptor beta (Homo sapiens, UniProt Q92731), IC50 = Not Active

====

assaySystem: Adenosine receptor A2a (Homo sapiens)
Sequence (P29274 whole entry): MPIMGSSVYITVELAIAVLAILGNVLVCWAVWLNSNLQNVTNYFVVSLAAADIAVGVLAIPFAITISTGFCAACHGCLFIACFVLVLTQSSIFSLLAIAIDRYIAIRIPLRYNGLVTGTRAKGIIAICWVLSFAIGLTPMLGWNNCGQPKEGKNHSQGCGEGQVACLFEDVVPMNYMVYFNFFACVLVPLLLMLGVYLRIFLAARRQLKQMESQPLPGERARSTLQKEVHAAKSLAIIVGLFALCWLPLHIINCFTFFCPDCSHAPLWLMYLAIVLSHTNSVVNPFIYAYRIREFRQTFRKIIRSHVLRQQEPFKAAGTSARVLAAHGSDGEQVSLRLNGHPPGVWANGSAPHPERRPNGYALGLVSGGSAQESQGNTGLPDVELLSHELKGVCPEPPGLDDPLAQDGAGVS
measurementNotes: DRUGMATRIX: Adenosine A2A radioligand binding (ligand: […])
Assay type: cell membranes, HEK293, Membrane
conditionNotes: hek293; Not Active = under 50% inhibition at 10 µM
measurementType: IC50

CN1C(=O)COc2c(C(=O)NC3CN4CCC3CC4)cc(Cl)cc21 (stereo not given) ... Not Active
COP(=O)(OC)OC=C(Cl)Cl ... Not Active
Cc1ccc(S(=O)(=O)NC(=O)NN2CC3CCCC3C2)cc1 (stereo not given) [GLICLAZIDE] ... Not Active
CN1C(C(=O)Nc2ccccn2)=C(O)c2sccc2S1(=O)=O ... Not Active
C=CCN1CC[C@]23c4c5ccc(O)c4O[C@H]2C(=O)CC[C@@]3(O)[C@H]1C5 ... Not Active
CC(C)CC(N(C)C)C1(c2ccc(Cl)cc2)CCC1 (stereo not given) ... Not Active
S=C=Nc1cccc2ccccc12 [1-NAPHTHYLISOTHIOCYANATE] ... Not Active
CC(C)C[C@H](NC(=O)[C@@H](O)[C@H](N)Cc1ccccc1)C(=O)O ... Not Active
CC[C@]1(O)C[C@@H]2CN(CCc3c([nH]c4ccccc34)[C@@](C(=O)OC)(c3cc4c(cc3OC)N(C)[C@H]3[C@@](O)(C(=O)OC)[C@H](OC(C)=O)[C@]5(CC)C=CCN6CC[C@]43[C@@H]65)C2)C1 ... Not Active

Now turn to the next compound.
Measured IC50 of CCCC(CCC)C(=O)O : Not Active

====

assaySystem: Epidermal growth factor receptor (Homo sapiens, UniProt P00533)
Sequence (P00533 whole entry): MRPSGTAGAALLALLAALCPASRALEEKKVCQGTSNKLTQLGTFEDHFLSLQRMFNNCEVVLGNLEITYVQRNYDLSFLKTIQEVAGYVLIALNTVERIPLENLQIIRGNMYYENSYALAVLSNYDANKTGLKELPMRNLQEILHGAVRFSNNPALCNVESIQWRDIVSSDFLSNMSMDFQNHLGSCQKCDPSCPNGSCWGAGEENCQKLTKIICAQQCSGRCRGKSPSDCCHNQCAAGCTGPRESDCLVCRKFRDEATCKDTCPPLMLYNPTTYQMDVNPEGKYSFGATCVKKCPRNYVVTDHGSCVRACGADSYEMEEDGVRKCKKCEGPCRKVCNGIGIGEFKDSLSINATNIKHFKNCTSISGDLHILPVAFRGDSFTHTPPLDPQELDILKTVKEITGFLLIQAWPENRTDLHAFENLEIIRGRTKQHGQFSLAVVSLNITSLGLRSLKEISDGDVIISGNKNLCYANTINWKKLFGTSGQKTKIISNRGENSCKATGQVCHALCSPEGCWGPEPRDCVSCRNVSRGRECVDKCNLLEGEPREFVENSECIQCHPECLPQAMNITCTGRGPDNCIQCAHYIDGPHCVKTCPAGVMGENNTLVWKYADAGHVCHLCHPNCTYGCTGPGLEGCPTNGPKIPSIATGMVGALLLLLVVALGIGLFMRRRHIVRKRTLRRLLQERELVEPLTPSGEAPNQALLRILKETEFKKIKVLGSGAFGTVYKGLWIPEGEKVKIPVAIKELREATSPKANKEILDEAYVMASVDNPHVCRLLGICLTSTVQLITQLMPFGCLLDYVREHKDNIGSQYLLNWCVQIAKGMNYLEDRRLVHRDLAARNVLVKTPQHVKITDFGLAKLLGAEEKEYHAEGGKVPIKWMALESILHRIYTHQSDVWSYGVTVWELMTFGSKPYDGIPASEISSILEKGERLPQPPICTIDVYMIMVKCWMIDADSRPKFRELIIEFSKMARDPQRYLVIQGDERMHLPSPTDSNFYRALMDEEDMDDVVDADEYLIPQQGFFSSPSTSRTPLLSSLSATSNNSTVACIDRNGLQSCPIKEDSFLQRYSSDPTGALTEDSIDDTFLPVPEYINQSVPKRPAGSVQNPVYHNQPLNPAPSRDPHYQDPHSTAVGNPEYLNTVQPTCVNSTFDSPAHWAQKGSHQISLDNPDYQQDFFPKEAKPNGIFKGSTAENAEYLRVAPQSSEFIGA
measurementNotes: DRUGMATRIX: Protein Tyrosine Kinase, EGF Receptor enzyme inhibition (substrate: Poly(Glu:Tyr))
Format: cell-based, Insect cells
conditionNotes: insect cells; Not Active = under 50% inhibition at 10 µM
measurementType: IC50

CCCCN1CCCCC1C(=O)Nc1c(C)cccc1C.Cl (centres undefined) [BUPIVACAINE HYDROCHLORIDE] ... Not Active
COc1cccc2c1C(=O)c1c(O)c3c(c(O)c1C2=O)C[C@@](O)(C(=O)CO)C[C@@H]3O[C@H]1C[C@H](N)[C@@H](O)[C@H](C)O1 [EPIRUBICIN] ... Not Active
CC/C(=C(/CC)c1ccc(O)cc1)c1ccc(O)cc1 ... Not Active
CCc1c2c(nc3ccc(OC(=O)N4CCC(N5CCCCC5)CC4)cc13)-c1cc3c(c(=O)n1C2)COC(=O)[C@]3(O)CC ... Not Active

====

Measured pIC50 on Androgen receptor (Rattus norvegicus, UniProt P15207) follows.
Sequence (P15207 whole entry S389L): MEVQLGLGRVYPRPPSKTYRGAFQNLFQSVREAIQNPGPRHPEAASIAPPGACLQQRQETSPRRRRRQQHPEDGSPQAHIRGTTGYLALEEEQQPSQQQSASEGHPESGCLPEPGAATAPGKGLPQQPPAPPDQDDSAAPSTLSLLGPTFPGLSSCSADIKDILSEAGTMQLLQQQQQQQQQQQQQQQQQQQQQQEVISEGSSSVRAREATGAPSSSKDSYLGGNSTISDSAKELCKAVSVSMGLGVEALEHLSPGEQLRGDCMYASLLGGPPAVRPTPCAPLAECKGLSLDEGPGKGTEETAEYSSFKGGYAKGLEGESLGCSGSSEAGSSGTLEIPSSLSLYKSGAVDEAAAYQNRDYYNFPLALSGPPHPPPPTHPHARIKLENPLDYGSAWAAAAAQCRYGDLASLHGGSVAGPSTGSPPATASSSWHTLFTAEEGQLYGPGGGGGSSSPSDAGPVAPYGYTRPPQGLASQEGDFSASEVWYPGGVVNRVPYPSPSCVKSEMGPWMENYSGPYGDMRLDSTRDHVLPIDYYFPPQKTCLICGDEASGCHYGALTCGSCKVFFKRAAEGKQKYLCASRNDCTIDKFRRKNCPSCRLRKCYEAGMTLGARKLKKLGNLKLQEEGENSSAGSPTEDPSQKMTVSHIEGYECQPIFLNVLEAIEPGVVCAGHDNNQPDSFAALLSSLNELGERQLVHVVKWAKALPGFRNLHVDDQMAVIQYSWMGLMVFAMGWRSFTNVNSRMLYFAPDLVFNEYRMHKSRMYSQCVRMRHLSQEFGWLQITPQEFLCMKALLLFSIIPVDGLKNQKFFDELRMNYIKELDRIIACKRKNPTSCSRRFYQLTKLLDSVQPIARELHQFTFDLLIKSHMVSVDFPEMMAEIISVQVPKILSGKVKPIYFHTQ
Friendly reminder that pIC50 comes from taking -log10 of the concentration in mol/L.

The following molecules have reported results that may help.
S=C=Nc1cccc2ccccc12 [1-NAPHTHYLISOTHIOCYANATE] ... 4.59
CN(C)c1ccc(C(=C2C=CC(=[N+](C)C)C=C2)c2ccc(N(C)C)cc2)cc1.[Cl-] ... 5.25

Continue with the molecule presented below.
Item C[C@]12CC[C@@H]3c4ccc(OC(=O)c5ccccc5)cc4CC[C@H]3[C@@H]1CC[C@@H]2O [ESTRADIOL BENZOATE] ; assay system Androgen receptor (Rattus norvegicus, UniProt P15207); pIC50 reported as 8.00

====

assaySystem: Neuropeptide Y receptor type 1 (Homo sapiens); note: in other assays of this panel Not Active means under 50% inhibition at 10 µM
Sequence (P25929 whole entry): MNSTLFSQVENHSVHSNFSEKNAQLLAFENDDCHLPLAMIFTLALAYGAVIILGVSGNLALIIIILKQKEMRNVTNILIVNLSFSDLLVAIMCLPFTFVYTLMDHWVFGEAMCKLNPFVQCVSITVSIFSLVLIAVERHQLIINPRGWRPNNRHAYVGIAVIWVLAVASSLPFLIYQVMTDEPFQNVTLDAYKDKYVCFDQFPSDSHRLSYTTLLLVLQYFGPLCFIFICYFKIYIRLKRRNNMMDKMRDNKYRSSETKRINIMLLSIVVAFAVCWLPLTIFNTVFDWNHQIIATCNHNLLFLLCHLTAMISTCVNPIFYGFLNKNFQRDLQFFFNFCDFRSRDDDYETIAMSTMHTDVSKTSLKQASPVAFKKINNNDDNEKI
Assay type: cell membranes, Membrane
conditionNotes: sk-n-mc
measurementType: IC50

Guide cases for IC50, answers given:
C[C@](O)(CS(=O)(=O)c1ccc(F)cc1)C(=O)Nc1ccc(C#N)c(C(F)(F)F)c1 [(R)-BICALUTAMIDE] ... Not Active
CC(C)C[C@H](NC(=O)[C@@H](O)[C@H](N)Cc1ccccc1)C(=O)O [UBENIMEX] ... Not Active
COc1cccc2c1C(=O)c1c(O)c3c(c(O)c1C2=O)C[C@@](O)(C(=O)CO)C[C@@H]3O[C@H]1C[C@H](N)[C@H](O)[C@H](C)O1 [DOXORUBICIN] ... Not Active
C#C[C@]1(O)CC[C@H]2[C@@H]3CCc4cc(OC)ccc4[C@H]3CC[C@@]21C [MESTRANOL] ... Not Active
CC1(C)O[C@@H]2C[C@H]3[C@@H]4C[C@H](F)C5=CC(=O)C=C[C@]5(C)[C@H]4[C@@H](O)C[C@]3(C)[C@]2(C(=O)CO)O1 [FLUNISOLIDE] ... Not Active
O=NN(CCCl)C(=O)NCCCl [CARMUSTINE] ... Not Active

Turning now to a further compound:
Entry O=S(=O)([O-])CCS.[Na+] [MESNA] : IC50 on Neuropeptide Y receptor type 1 (Homo sapiens) = Not Active

====

assaySystem: Cytochrome P450 2E1 (Homo sapiens, UniProt P05181); note: in other assays of this panel Not Active means under 50% inhibition at 10 µM
Sequence (P05181 whole entry): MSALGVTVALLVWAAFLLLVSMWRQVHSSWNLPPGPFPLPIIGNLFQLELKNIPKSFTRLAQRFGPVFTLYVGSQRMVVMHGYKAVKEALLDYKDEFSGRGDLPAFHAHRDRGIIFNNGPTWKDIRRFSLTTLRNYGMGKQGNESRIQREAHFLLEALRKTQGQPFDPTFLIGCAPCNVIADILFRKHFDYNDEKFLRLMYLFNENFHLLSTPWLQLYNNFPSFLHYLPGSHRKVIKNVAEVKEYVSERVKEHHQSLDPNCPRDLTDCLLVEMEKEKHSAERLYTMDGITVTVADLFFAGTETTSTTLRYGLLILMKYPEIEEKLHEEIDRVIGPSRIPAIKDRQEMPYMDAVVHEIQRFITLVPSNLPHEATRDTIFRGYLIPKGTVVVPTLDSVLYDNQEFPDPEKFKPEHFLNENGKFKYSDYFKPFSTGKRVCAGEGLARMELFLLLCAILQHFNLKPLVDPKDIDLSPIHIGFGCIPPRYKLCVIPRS
conditionNotes: bti-tn-5b1-4
measurementType: Ki

C[C@]1(Cn2ccnn2)[C@H](C(=O)O)N2C(=O)C[C@H]2S1(=O)=O ... Not Active
CNC(=C[N+](=O)[O-])NCCSCc1ccc(CN(C)C)o1 ... Not Active
CCc1c2c(nc3ccc(OC(=O)N4CCC(N5CCCCC5)CC4)cc13)-c1cc3c(c(=O)n1C2)COC(=O)[C@]3(O)CC ... Not Active
CCCN(CCC)C(=O)C(CCC(=O)O)NC(=O)c1ccccc1 (configuration not stated) [PROGLUMIDE] ... Not Active
COc1cc2c(c(OC)c1OC)-c1ccc(OC)c(=O)cc1[C@@H](NC(C)=O)CC2 ... Not Active
O=C1CCC(N2C(=O)c3ccccc3C2=O)C(=O)N1 (configuration not stated) [THALIDOMIDE] ... Not Active

Please find the next molecule below.
Per the reported Cytochrome P450 2E1 (Homo sapiens, UniProt P05181) data, [H]/N=C(/N)N[C@H]1[C@H](O)[C@@H](O)[C@H](O[C@@H]2O[C@@H](C)[C@](O)(C=O)[C@H]2O[C@@H]2O[C@@H](CO)[C@H](O)[C@@H](O)[C@@H]2NC)[C@@H](N/C(N)=N\[H])[C@@H]1O has Ki of Not Active
